Provide the reported Mean OD450 of each item.
Target: T1, wild type human PD-L1-Fc protein (SEQ ID NO: 107) (human)
T1 construct: Extracellular human PD-L1 (amino acid 19-238) with Fc fragment of human IgG1, expressed in 293T cells and used as culture supernatant; also called WT PD-L1; wild-type PD-L1
T1 sequence (chain, as listed by the source limits assumed): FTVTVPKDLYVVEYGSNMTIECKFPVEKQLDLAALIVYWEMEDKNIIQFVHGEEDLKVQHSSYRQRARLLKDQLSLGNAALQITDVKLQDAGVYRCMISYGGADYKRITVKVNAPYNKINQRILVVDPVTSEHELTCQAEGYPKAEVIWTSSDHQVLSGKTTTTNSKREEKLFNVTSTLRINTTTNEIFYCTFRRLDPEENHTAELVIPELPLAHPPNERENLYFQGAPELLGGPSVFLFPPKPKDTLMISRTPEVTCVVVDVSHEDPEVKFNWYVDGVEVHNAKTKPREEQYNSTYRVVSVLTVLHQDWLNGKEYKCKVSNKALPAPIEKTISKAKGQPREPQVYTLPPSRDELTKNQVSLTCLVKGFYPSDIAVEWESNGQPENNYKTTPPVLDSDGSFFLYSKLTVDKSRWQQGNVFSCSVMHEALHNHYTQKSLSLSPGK
Experiment: ELISA on captured PD-L1-Fc, as in Example 18A; further: test concentration or dose not given here
Respond numerically; units are OD450 and should not be typed.

Quick check: Mean OD450 of 22C9 (antibody, V domains shown, Mouse monoclonal from hybridoma; also called mouse monoclonal antibody 22C9) VH: QVQLQQSGAELVKPGASVKLSCKASGYTFTSYWMHWVWQRPGQGLEWIGMIHPNSDITNCNENFKHTVTLTVDKSSSTAYMQLSSLTSEDSAVFYCARSDGSSYWYFDVWGTGTTVTVSS VL: SIVMTQTPKFLSVSAGDRVTITCKAGQSVNNDVAWYQQKPGQSPKLLIYYASNRYTGVPDRFTGSGYGTDFTFTISTVQAEDLAVYFCQQDFSSPLTFGAGTKLELK ?
1.92

Quick check: Mean OD450 of 4B6 (antibody, V domains shown, Mouse monoclonal purified from hybridoma; also called mouse monoclonal antibody 4B6) VH: EVQLQQSGPELVKPGASVKISCKASGYVFTDYYMNWVKQSHGKSLEWIGDINPNNGGTSYNHKFKGKATVTVDKSSRTAYMELLSLTSEDSAVYYCVKWGDGPFAYWGQGTLVTVSA VL: DIVMTQSQKFMSTSVGDRVSITCKASQNVGAAVAWYQQKPGQSPKLLIYSASNRYTGVPDRFTGSGSGTDFTLTISNMQSEDLADYFCQQYSNYPTFGSGTKLGIK ?
1.49

Quick check: Mean OD450 of 18G4 (antibody, V domains shown, Mouse monoclonal from hybridoma; also called mouse monoclonal antibody 18G4) VH: QVQLQQPGTALVKPGASVKLSCKASGYTFSSYYIHWVKQRPGQGLEWIGNINPFNGGSIYNEKFKNKASLTVDTSSNTAYMQLSSLTSEDSAVYYCARWHFDYWGQGTSLTVSS VL: DIVMTQSPSSLAVTAGEKVTLKCKSSQSLLWSGNQNNYLSWYQQKQGQPPKLLIYGASIRESWVPDRFTGSGSGTDFTLTIGNVSAEDLAVYYCQHNHGSFLPYTFGGGTRLEIK ?
1.45

Quick check: Mean OD450 of 23A11-H3L5 (antibody, V domains shown, Human IgG1 constant region with N297A; biotinylated in the alanine-scan ELISA; also called 23A11-H3L5-bio; humanized 23A11) VH: LVQLVQSGAEVKKPGASVKLSCKASGYIFTTYWIHWVKQRPGQGLEWIGMIQPNSGGTKYNDQFKNRATLTVDKSISTAYMELSRLTSDDTAVYYCARGAGTVDYFDYWGQGTTLSISS VL: DIVLTQSPASLAVSVGQRATITCRASESVDIYGNSFMHWYQQKPGQAPKLLIYRASNLESGIPARFSGSGSRTDFTLTINPVEANDTATYYCQQSNDDPYTFGGGTKLETK ?
1.34

Source listed as patent US20210009693A1.
